- subjectOfTest: YB-1 cold shock domain (CSD) (human, UniProt P67809 51-129)
- Sequence (P67809 51-129): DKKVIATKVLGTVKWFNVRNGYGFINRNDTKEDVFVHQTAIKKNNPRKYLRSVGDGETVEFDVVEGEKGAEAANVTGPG
- procedureText: EMSA; apparent Kd, protein concentration at 50% saturation; 7 pmol DNA in 10 ul; 10 mM Hepes-KOH pH 7.6, 100 mM KCl, 30 C, 15 min, 10 ul; 8% native PAGE in TBE, silver staining
- testContext: protein: recombinant; single strand
quantityName: pKd
pKd is a log-scale quantity: -log10 of the concentration expressed in molar.

So, AGGATGGGTGAGTGAGGTAG (ssDNA) [G-rich DNA 20-mer] ? Its pKd was 5.22

Where do the numbers come from? From paper PMC4493011.
